Molecular target: KDR (Homo sapiens)
Sequence (P35968 20-1356): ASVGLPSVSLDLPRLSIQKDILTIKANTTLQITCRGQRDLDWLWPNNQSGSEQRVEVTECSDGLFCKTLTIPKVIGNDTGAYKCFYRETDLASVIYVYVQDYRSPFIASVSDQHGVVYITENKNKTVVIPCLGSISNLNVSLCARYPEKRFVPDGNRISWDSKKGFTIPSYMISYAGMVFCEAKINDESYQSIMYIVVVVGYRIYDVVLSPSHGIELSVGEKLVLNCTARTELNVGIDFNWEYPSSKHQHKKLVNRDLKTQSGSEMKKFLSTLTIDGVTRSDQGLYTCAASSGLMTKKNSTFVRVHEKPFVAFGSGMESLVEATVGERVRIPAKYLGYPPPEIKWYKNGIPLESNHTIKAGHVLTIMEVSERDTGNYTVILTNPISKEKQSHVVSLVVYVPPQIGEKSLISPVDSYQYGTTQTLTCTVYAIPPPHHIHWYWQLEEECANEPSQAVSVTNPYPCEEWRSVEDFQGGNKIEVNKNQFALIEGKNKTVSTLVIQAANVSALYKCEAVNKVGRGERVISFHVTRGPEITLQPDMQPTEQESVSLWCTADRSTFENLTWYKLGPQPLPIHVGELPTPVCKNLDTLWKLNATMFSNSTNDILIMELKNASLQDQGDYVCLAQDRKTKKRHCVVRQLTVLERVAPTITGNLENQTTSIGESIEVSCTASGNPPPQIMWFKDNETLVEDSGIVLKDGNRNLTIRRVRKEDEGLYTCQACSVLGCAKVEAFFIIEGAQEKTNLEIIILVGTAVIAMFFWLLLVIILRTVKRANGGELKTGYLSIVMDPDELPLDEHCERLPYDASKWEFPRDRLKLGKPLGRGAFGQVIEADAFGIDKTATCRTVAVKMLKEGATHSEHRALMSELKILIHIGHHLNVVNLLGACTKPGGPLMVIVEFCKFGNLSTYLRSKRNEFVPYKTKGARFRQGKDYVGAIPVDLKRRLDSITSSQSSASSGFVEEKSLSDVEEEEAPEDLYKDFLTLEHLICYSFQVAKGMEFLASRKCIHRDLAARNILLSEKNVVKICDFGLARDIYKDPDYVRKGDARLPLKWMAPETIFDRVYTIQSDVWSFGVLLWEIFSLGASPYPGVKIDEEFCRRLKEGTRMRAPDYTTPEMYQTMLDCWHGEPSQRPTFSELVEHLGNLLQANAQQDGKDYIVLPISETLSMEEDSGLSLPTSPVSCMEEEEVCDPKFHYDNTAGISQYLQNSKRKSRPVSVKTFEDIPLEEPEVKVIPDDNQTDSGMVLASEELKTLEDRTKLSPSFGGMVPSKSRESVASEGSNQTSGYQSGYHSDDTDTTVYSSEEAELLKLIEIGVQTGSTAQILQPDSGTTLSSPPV
Assay: Inhibition of receptor tyrosine kinase activity at molecular level (ELISA, Poly(Glu,Tyr)4:1 substrate phosphorylation)
Type: biochemical
Settings: 10 nM compound; average of two independent experiments
Entries and their 10 nM inhibition ratio KDR
Field format: numeric only.

Known 10 nM inhibition ratio KDR results, listed for orientation:
- smi: "COCCOc1cnc(N)c(C#Cc2cc(C(=O)Nc3ccc(CN4CCN(C)CC4)c(C(F)(F)F)c3)ccc2Cl)c1"
  target.under.test: "KDR (Homo sapiens)"
  10 nM inhibition ratio KDR: 34.1
- smi: "CN1CCN(Cc2ccc(NC(=O)c3ccc(Cl)c(C#Cc4cc(OC5COC5)cnc4N)c3)cc2C(F)(F)F)CC1"
  target.under.test: "KDR (Homo sapiens)"
  10 nM inhibition ratio KDR: 33.2

QUERY: Could you tell me which 10 nM inhibition ratio KDR is on file for `C=CC(=O)Nc1cnc(N)c(C#Cc2cc(C(=O)Nc3ccc(CN4CCN(C)CC4)c(C(F)(F)F)c3)ccc2Cl)c1` ?
RESULT: 36.4

QUERY: Requested read-out: 10 nM inhibition ratio KDR. Entry: `CN1CCN(Cc2ccc(NC(=O)c3ccc(Cl)c(C#Cc4cc(OC(F)(F)F)cnc4N)c3)cc2C(F)(F)F)CC1`
RESULT: 33.1
